- target.or.system: SpHof1-2
- procedure.details: SPOT peptide array binding signal intensity (averaged, normalized) (arbitrary units (background-subtracted, floor 0; scale differs between SH3 domains)); higher = stronger binding of the SH3 domain to the peptide
property.label: SPOT peptide array binding signal intensity
Number only, please.

binder | reported.result
GTIARPLFLVVLFFI | 22.5
RLPAPPPPPRRGPAP | 166
VDFTLPPPPPPPGLD | 0.75

What SPOT peptide array binding signal intensity value was documented for this binder, PSRRAPLQLPQLVNK ?
1.25
